target: GLUT9 (Homo sapiens, UniProt Q9NRM0, W336A); construct: full length human SLC2A9, N-terminal twin strep and FLAG tag; test: MST with purified protein
Sequence (Q9NRM0 whole entry W336A): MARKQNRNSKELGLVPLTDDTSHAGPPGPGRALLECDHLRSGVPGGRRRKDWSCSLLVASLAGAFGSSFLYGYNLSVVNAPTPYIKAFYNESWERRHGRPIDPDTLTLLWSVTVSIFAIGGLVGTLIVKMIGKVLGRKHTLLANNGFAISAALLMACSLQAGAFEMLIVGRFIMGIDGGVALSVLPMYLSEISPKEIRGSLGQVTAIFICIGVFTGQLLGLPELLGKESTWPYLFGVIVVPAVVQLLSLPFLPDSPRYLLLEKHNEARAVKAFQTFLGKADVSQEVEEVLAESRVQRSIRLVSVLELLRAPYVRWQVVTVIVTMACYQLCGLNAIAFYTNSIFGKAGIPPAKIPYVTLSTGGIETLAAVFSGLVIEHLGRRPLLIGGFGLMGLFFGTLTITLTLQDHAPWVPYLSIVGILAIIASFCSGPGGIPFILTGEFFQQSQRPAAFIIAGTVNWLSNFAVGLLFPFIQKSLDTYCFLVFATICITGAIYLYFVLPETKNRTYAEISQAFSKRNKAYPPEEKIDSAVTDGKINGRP
Measured Parameter: Kd (nM)

>>> result_number("O=c1cc(-c2ccc(O)cc2)oc2cc(O)cc(O)c12 [API, apigenin]")
1300

---

molecular target: GLUT9 (Homo sapiens, UniProt Q9NRM0, Y327Q); construct: full length human SLC2A9, N-terminal twin strep and FLAG tag; test: MST with purified protein
Sequence (Q9NRM0 whole entry Y327Q): as the sequence (Q9NRM0 whole entry W336A) above, with Y327Q, A336W counted along it
pKd: −log10 of the molar value.
Measured Parameter: pKd

>>> result_number("O=c1[nH]c(=O)c2[nH]c(=O)[nH]c2[nH]1 [UA, urate]")
3.06
